System: SF-539 CNS
PROTOCOL_SUMMARY: NCI tumour cell line growth inhibition, 48 h
QUANTITY_NAME: TGI

molecule=Cn1cnnc1[S-].[Au+].c1ccc([PH+](c2ccccc2)c2ccccc2)cc1 reported_value="3 µM"
molecule=O=C1OC(=O)C([Se]c2ccccc2)=C1[Se]c1ccccc1 reported_value="> 100 µM"
molecule=COc1ccccc1-c1c(C#N)c(N)[nH]c(=S)c1C#N reported_value="> 100 µM"
molecule="COc1ccc(-c2nc(-c3cnccn3)n(C3OC(CO)C(O)C3O)n2)cc1 (stereo not given)" reported_value="> 10 µM"
molecule=COc1ccc2nc3cc(Cl)ccc3c(NCCCN3CCN(CCCNc4ccc5nnn6c7ccccc7c(=O)c4c56)CC3)c2c1 reported_value="8.14 µM"

====

Test system: U251 CNS
PROTOCOL_SUMMARY: NCI tumour cell line growth inhibition, 48 h; in the data active = GI50 below about 0.43 µM; inactive = the rest
Labels: 1 = active, -1 = inactive

compound=COc1ccc(-c2cc(/C=C/C(=O)c3ccc(N)cc3)[nH]n2)cc1 label_value=-1
compound="C[As](C)SC1OCC(O)C(O)C1O (stereo not drawn)" label_value=-1
compound=COc1ccc2c(c1)C(=O)c1c-2c(OCCN(C)C)nc2cc(OC)c(OC)cc12 label_value=-1
compound=CCOC(=O)[C@@H]1CSC(CC)=C(C(=O)O)N1 label_value=-1
compound=Nc1ccccc1C#Cc1ccccc1C#Cc1cccs1 label_value=-1
compound=CCOc1ccc2cc(-c3nn(CC4CCNCC4)c4ncnc(N)c34)ccc2c1 label_value=-1
compound="COCC(C(=O)OC1C/C=C/C=C/C(=O)OC(C(C)C(O)C(C)CCC(OC(=O)C(C)N(C)C)C(C)C(OC(C)=O)C(C)/C=C/N(C)C=O)C/C=C/C(OC)CC(C)C/C=C(\\C)C(OC)CCC(C)C(O)C1C)N(C)C (stereo not drawn)" label_value=1
compound=C=CC(=O)Nc1cc2c(Nc3ccc(F)c(Cl)c3)ncnc2cc1C#CC(C)(C)N1CCN(C)CC1 label_value=-1
compound=CC(C)OP(=O)(O)c1ncc(-c2ccc(C(F)(F)F)cc2)c(NC2CCCCCC2)n1 label_value=-1
compound=CCOC(=O)c1c(NC(=O)c2ccc(Cl)cc2)sc2c(CN(C)C)c(O)ccc12 label_value=-1
compound="COc1ccc(C(O)c2cc3c(N)c(C(=O)Nc4cccc(Br)c4C)sc3nc2C)cc1 (stereo not drawn)" label_value=1
compound="CC(O)[C@H](NC(=O)N[C@@H](CC(N)=O)c1nc(N2CCNCC2)no1)C(=O)O (stereo partly drawn)" label_value=-1
compound=NC(=O)/C(=C/n1cnc(-c2cc(C(F)(F)F)cc(C(F)(F)F)c2)n1)c1cncnc1 label_value=1
compound=N#Cc1cc(S(=O)(=O)Nc2nc3cc(Cl)ccc3o2)c(SCc2ccccc2)cc1Cl label_value=-1
compound=CCn1c(-c2nonc2N)nc2cnc(Oc3cccc(NC(=O)c4ccc(N(C)C)cc4)c3)cc21 label_value=-1
compound=C#C[C@]1(O)CC[C@H]2[C@@H]3CC=C4c5nc(N)sc5CC[C@]4(C)[C@H]3CC[C@@]21C label_value=-1
compound=CC[C@H]1OC(=O)[C@H](C)[C@@H](O[C@H]2C[C@@](C)(OC)[C@@H](O)[C@H](C)O2)[C@H](C)[C@@H](O[C@@H]2O[C@H](C)C[C@H](N(C)C)[C@H]2O)[C@](C)(OC)C/C(C)=C2/O[C@@]1(C)C=C2C label_value=-1
compound="COc1cc2c3cc1Oc1c(OC)c(OC)cc4c1C(Cc1ccc(O)c(c1)Oc1ccc(cc1)CC3N(C)CC2)N(C)CC4 (stereo not drawn)" label_value=-1

====

Measured TGI values are reported for all entries that follow.
System: SK-MEL-28 melanoma
PROTOCOL_SUMMARY: NCI tumour cell line growth inhibition, 48 h
QUANTITY_NAME: TGI

compound="COC(=O)C(=O)C(C(=O)C(=O)Nc1ccc(C)cc1C)c1nc2ccc(Cl)cc2[nH]c1=O (stereo not given)" system_tested="SK-MEL-28 melanoma" reported_value="> 100 µM"
compound=N#[N+]c1ccc(Nc2ccccc2)cc1 system_tested="SK-MEL-28 melanoma" reported_value="> 50 µg/mL"
compound=O=C1NC(N/N=C\c2ccccc2)=N/C1=C/c1ccccc1 system_tested="SK-MEL-28 melanoma" reported_value="> 100 µM"
compound=COC(=O)c1c(O)ccc2c1c1c(n2Cc2cc(OC)cc(OC)c2)C(=O)c2ccccc2C1=O system_tested="SK-MEL-28 melanoma" reported_value="33 µM"
compound=COC(=O)C(=O)Nc1cc2c3c(c1)Oc1cccc4c1C3(C)c1c(cccc1O2)O4 system_tested="SK-MEL-28 melanoma" reported_value="> 100 µM"
compound=COc1cc([C@@H]2c3cc4c(cc3[C@@H](Nc3ccc(Cl)cc3C(=O)c3ccccc3)[C@H]3COC(=O)[C@H]23)OCO4)cc(OC)c1OC system_tested="SK-MEL-28 melanoma" reported_value="78.4 µM"
compound=Cc1ccc2nc(NS(=O)(=O)c3cc(C)c(Cl)cc3S)[nH]c2c1 system_tested="SK-MEL-28 melanoma" reported_value="> 100 µM"
compound=COC(=O)c1c(O)ccc2c1c1cc3ccccc3c(O)c1n2CCc1ccc(OC)c(OC)c1 system_tested="SK-MEL-28 melanoma" reported_value="91.1 µM"
compound=CCCCOC/N=C(/N)NC#N system_tested="SK-MEL-28 melanoma" reported_value="> 100 µM"
compound=C=CC(=O)Nc1cc2c(Nc3ccc(F)c(Cl)c3)ncnc2cc1C#CC(C)(C)N1CCN(C)CC1 system_tested="SK-MEL-28 melanoma" reported_value="5.67 µM"
compound=CCOC(=O)c1c(CN2CCN(C)CC2)nc2ccc(Cl)cc2c1-c1ccccc1 system_tested="SK-MEL-28 melanoma" reported_value="3.19 µM"
compound=Cc1sc2nc3n(c(=O)c2c1C)N=CN(c1ccc(Cl)cc1)C3 system_tested="SK-MEL-28 melanoma" reported_value="> 100 µM"
compound=C#C[C@]1(O)CC[C@H]2[C@@H]3CCc4cc(O)ccc4[C@H]3CC[C@@]21C system_tested="SK-MEL-28 melanoma" reported_value="> 100 µM"
compound=O=C1CCC(=O)N1Sc1ccccc1 system_tested="SK-MEL-28 melanoma" reported_value="> 100 µM"
compound="O=C1CSC(c2ccccc2O)N1c1ccc(-n2c(-c3ccccc3)nc3ccccc3c2=O)cc1 (stereo not given)" system_tested="SK-MEL-28 melanoma" reported_value="> 100 µM"
compound="COc1cc(C2S/C(=C/c3ccccc3)C(=O)N2c2cccc(NC(C)=O)c2)cc(OC)c1OC (stereo not given)" system_tested="SK-MEL-28 melanoma" reported_value="> 100 µM"
compound=COc1ccc(C2=Nn3c(nnc3-n3nc(C)cc3C)SC2)cc1 system_tested="SK-MEL-28 melanoma" reported_value="> 100 µM"
compound=C=C1CC[C@H]2C(C)=CC[C@H]3C(=C)C(=O)O[C@@H]3[C@@H]12 system_tested="SK-MEL-28 melanoma" reported_value="> 100 µM"
compound=O=C(Nc1ccccc1)OCCN=C1c2ccccc2CCc2ccccc21 system_tested="SK-MEL-28 melanoma" reported_value="28.7 µM"
compound=N#Cc1cc(S(=O)(=O)Nc2nc3cc(Cl)ccc3o2)c(SCc2ccccc2)cc1Cl system_tested="SK-MEL-28 melanoma" reported_value="25.4 µM"

====

Tested on: T-47D breast
PROTOCOL_SUMMARY: NCI tumour cell line growth inhibition, 48 h
QUANTITY_NAME: TGI

compound=C[C@@H]1CC[C@@H]2[C@@H](C1)O[C@@H]([C@@H](C)OCc1ccccc1)SC2(C)C quantity_name=TGI reported_value="32.4 µM"
compound="COc1ccc(C2C3CCc4ccccc4C3=NN2S(=O)(=O)c2cccc(C(=O)O)c2OC)cc1 (stereo not drawn)" quantity_name=TGI reported_value="> 100 µM"
compound=COc1cc([C@@H]2c3cc4c(cc3[C@@H](Nc3ccc(Cl)cc3C(=O)c3ccccc3)[C@H]3COC(=O)[C@H]23)OCO4)cc(OC)c1OC quantity_name=TGI reported_value="> 100 µM"
compound=CC(=O)c1ccc(Nc2c3ccccc3nc3occc23)cc1 quantity_name=TGI reported_value="32.8 µM"
compound="CSC1=Nc2c(c(C)c(-c3ccccc3)n2COC(CO)CO)C2=NC(=O)CC(C)N12 (stereo not drawn)" quantity_name=TGI reported_value="> 100 µM"
compound=Cc1cc(NS(=O)(=O)c2ccc(N=[N+]([O-])c3ccc(S(=O)(=O)Nc4cc(C)on4)cc3)cc2)no1 quantity_name=TGI reported_value="> 100 µM"
compound="CCCCCC[C@H]1C(=O)O[C@H](C)[C@H](NC(=O)c2cccc(NC=O)c2OC)C(=O)O[C@@H](C)[C@@H]1OC(=O)CCC (tested in a mixture with another compound)" quantity_name=TGI reported_value="35.5 µM"
compound="O=C1OC([C@H](O)c2cccnc2)c2ccccc21 (stereo partly drawn)" quantity_name=TGI reported_value="> 10 µM"
compound=OCCN(CO)CO quantity_name=TGI reported_value="> 100 µM"
compound=O=[N+]([O-])c1ccc(-c2nn3c(C45CC6CC(CC(C6)C4)C5)nnc3s2)c(Cl)c1 quantity_name=TGI reported_value="> 100 µM"
compound="CC(Oc1ccc(Cl)cc1Cl)C(=O)NN1C(=O)CC(=O)N(c2ccccc2)C1=S (stereo not drawn)" quantity_name=TGI reported_value="> 100 µM"
compound="C[As](C)SC1OCC(O)C(O)C1O (stereo not drawn)" quantity_name=TGI reported_value="4.74 µM"
compound=C=CC(=O)Nc1cc2c(Nc3ccc(F)c(Cl)c3)ncnc2cc1C#CC(C)(C)N1CCN(C)CC1 quantity_name=TGI reported_value="5.32 µM"
compound="Cc1cn(C2CC(N=[N+]=[N-])C(COP(=O)(O)OCC3OC(n4cc(F)c(=O)[nH]c4=O)CC3O)O2)c(=O)[nH]c1=O (stereo not drawn)" quantity_name=TGI reported_value="> 100 µM"
compound=COc1cc2c3c(n(CCCNCCCNCCCN)c(=O)c2cc1OC)-c1cc2c(cc1C3=O)OCO2 quantity_name=TGI reported_value="> 100 µM"
compound="CC(C)[Si]1(C(C)C)OCC2OC(n3ccc(=O)[nH]c3=O)C([Se]c3ccccc3)C2O[Si](C(C)C)(C(C)C)O1 (stereo not drawn)" quantity_name=TGI reported_value="19.9 µM"
compound="COc1cccc(C23CCN(C)C(CC(O)C2)C3)c1OC (stereo not drawn)" quantity_name=TGI reported_value="> 100 µM"
compound=Nn1c(-c2ccc(Cl)cc2)nc2c(-c3ccc(Cl)cc3)nc3ccc(Cl)cc3c2c1=O quantity_name=TGI reported_value="67.2 µM"
